ASSAY_SYSTEM: GST-hRIPK1 (8-327) (Homo sapiens (Human), UniProt Q13546)
Sequence (Q13546 8-327): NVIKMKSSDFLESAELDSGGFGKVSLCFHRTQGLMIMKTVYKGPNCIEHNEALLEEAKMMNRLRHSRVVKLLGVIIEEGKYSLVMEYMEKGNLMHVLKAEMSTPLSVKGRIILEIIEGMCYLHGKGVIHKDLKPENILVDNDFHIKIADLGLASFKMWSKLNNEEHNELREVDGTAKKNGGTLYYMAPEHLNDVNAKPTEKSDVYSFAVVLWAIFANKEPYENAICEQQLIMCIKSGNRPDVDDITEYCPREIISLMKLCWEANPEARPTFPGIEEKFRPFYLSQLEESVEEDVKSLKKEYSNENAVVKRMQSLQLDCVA
MEASUREMENT_DESCRIPTION: Fluorescent Polarization Binding (FP Binding) assay, RIPK1
DETAILS: GST-hRIPK1 (8-327), mean of at least two independent experiments
ASSAY_READOUT: IC50

COMPOUND	ASSAY_SYSTEM	ASSAY_READOUT	MEASURED_VALUE
N#Cc1cncc2c1OCCN(C(=O)C1CCN(c3ccnc4c(Cl)cnn34)C[C@@H]1F)C2 (stereo partly shown)	GST-hRIPK1 (8-327) (Homo sapiens (Human), UniProt Q13546)	IC50	0.1 to 100 nM
CC1(C(=O)N2CCOc3c(C#N)cncc3C2)CCN(c2ncc(F)c(=O)[nH]2)CC1(F)F (stereo not shown)	GST-hRIPK1 (8-327) (Homo sapiens (Human), UniProt Q13546)	IC50	100 to 1000 nM
N#Cc1cncc2c1OCCN(C(=O)C1CCN(c3ccnc4c(F)cnn34)CC1)C2	GST-hRIPK1 (8-327) (Homo sapiens (Human), UniProt Q13546)	IC50	0.1 to 100 nM
N#Cc1cncc2c1OCCN(C(=O)C1CCN(c3nc(F)c(F)cc3F)CC1)C2	GST-hRIPK1 (8-327) (Homo sapiens (Human), UniProt Q13546)	IC50	0.1 to 100 nM
CC1(C(=O)N2CCOc3c(C#N)cncc3C2)CCN(c2ncccn2)CC1(F)F (single isomer, unassigned) [Example 297]	GST-hRIPK1 (8-327) (Homo sapiens (Human), UniProt Q13546)	IC50	0.1 to 100 nM
N#Cc1cncc2c1OCCN(C(=O)C1CCN(c3ncc(F)cn3)CC1(F)F)C2 (single isomer, unassigned) [Example 307]	GST-hRIPK1 (8-327) (Homo sapiens (Human), UniProt Q13546)	IC50	100 to 1000 nM
N#Cc1cncc2c1OCCN(C(=O)C1CCN(c3ncc(F)cn3)CC1(F)F)C2 (single isomer, unassigned) [Example 308]	GST-hRIPK1 (8-327) (Homo sapiens (Human), UniProt Q13546)	IC50	0.1 to 100 nM

###

The entries below come with measured pIC50 values attached.
ASSAY_SYSTEM: GST-hRIPK1 (8-327) (Homo sapiens (Human))
MEASUREMENT_DESCRIPTION: Fluorescent Polarization Binding (FP Binding) assay, RIPK1
DETAILS: 10 nM GST-hRIPK1 (8-327), 5 nM fluorescent-labeled ligand, RT, 30 min, mean of at least two independent experiments
pIC50: −log10 of the molar value.

COMPOUND	pIC50
COc1nc(N2CCC(F)(C(=O)N3CCOc4c(C#N)cncc4C3)CC2)nc(C)c1F [Example 196]	6.00 to 7.00
CC(C)(C(=O)N1CCOc2c(C#N)cccc2C1)C1CC1 [Example 26]	7.00 to 10.00
CC1COc2ccccc2CN1C(=O)C(C)(C)C(F)F (stereo not shown) [Example 21]	7.00 to 10.00
COCC(C)(C)C(=O)N1CCOc2c(C#N)cncc2C1 [Example 150]	6.00 to 7.00
CC(C)(C(=O)N1CCOc2c(C#N)cncc2C1)C1CC1 [Example 30]	7.00 to 10.00
Cc1ccc2c(c1)CN(C(=O)C(C)(C)C(F)F)CCO2 [Example 11]	6.00 to 7.00
N#Cc1cncc2c1OCCN(C(=O)C13CC(COc4ncc(F)cn4)(C1)C3)C2 [Example 93]	6.00 to 7.00
N#Cc1cncc2c1OCCN(C(=O)C1(F)CCN(c3nccn4ccnc34)CC1)C2 [Example 106]	6.00 to 7.00
CC(C)(CSc1ncc(F)cn1)C(=O)N1CCOc2c(C#N)cncc2C1 [Example 181]	< 6.00
CC(F)(F)C(C)(C)C(=O)N1CCOc2c(F)cccc2C1 [Example 18]	7.00 to 10.00
COC(C)(C)C(=O)N1CCOc2c(C#N)cncc2C1 [Example 43]	6.00 to 7.00
CCC(C)(C)C(=O)N1CCCc2ccccc2C1 [Example 4]	6.00 to 7.00
Cn1cnc2cnc(N3CCC(F)(C(=O)N4CCOc5c(C#N)cncc5C4)CC3)nc21 [Example 169]	6.00 to 7.00
COc1nccc(N2CCC(F)(C(=O)N3CCOc4c(C#N)cncc4C3)CC2)n1 [Example 172]	6.00 to 7.00
CC(C)(CC#N)C(=O)N1CCOc2c(F)cccc2C1 [Example 14]	7.00 to 10.00
N#Cc1cncc2c1OCCN(C(=O)C1(F)CCN(c3ncc(F)cn3)CC1)C2 [Example 161]	7.00 to 10.00
COc1ccnc(N2CCC(C(=O)N3Cc4cncc(C#N)c4OC[C@H]3C)CC2)n1 [Example 119]	7.00 to 10.00
CC1(C(=O)N2CCOc3c(C#N)cncc3C2)CC(F)(F)C1 [Example 138]	6.00 to 7.00
N#Cc1cncc2c1OCCN(C(=O)C1(F)CCN(c3ncc(F)cn3)C1)C2 (stereo not shown) [Example 176]	< 6.00

Values were extracted from patent US11203600B2.
